Assay: Cytotoxicity against human HuH7 cells expressing HIV LTR promoter driven luciferase reporter gene in presence of 10% fetal bovine serum by lucifrease reporter gene assay
Format: cell-based, Huh-7
experimentalEndpoint: CC50

COc1nc(N)nc2c1ncn2[C@@H]1O[C@H](CO[P@@](=O)(N[C@@H](C)C(=O)OC2CCCC2)Oc2ccccc2)C[C@@]1(C)F : > 100 µM

Request: Look at this compound and give its reported CC50. "COc1nc(N)nc2c1ncn2[C@@H]1O[C@H](CO)C[C@@]1(C)F"
Response: > 100 µM
